# experimental.details: Pharmacokinetic profile in plasma
# Assay type: in vivo
# experimental.conditions: mouse, po, P.O., mice, read-out: MRT0-inf
I'd be grateful if you could share measured MRT inf for these entries.
// note: answer is a bare numeric in h

MRT inf for "O=C(/C=C\n1cnc(-c2cc(C(F)(F)F)cc(S(F)(F)(F)(F)F)c2)n1)NNc1ccccn1" is 7.84

MRT inf for "O=C(/C=C\n1cnc(-c2cc(C(F)(F)F)cc(S(F)(F)(F)(F)F)c2)n1)NNc1cnccn1" is 5.55

---

I'd be grateful if you could share measured pIC50 for these entries.
# System: LN-229
# experimental.details: CellTiter-Glo cell proliferation assay, LN-229
# Type: cell-based
# experimental.conditions: Homo sapiens; LN-229; 72 hours; Table 1; read-out: Growth inhibition (IC50)
The read-out pIC50 is expressed as -log10 of concentration in moles per litre.

pIC50 for O=C(/C=C\n1cnc(-c2cc(C(F)(F)F)cc(S(F)(F)(F)(F)F)c2)n1)NNc1ccccn1 [Compound II] is 6.09

pIC50 for CC(C)(C)C(=O)NNC(=O)/C=C\n1cnc(-c2cc(C(F)(F)F)cc(S(F)(F)(F)(F)F)c2)n1 [Compound III] is 5.75
